Catalogue of compounds with associated IC50
- System: A549
- Procedure summary: Cytotoxicity against human A549 cells after 4 days by MTT assay
- Type: functional, cell-based
- Condition summary: A549, 96 h

- Compound: "COc1cc(C(=O)O[C@@H]2C[C@](C)(O)[C@H]3[C@H](O[C@@H]4O[C@H](CO)[C@@H](O)[C@H](O)[C@H]4O)OC=C[C@H]32)cc(OC)c1O[C@@H]1O[C@@H](C)[C@H](O)[C@@H](O)[C@H]1O [REHMAGLUTOSIDE C]"
  IC50: "> 10 µM"
- Compound: "CC(/C=C/[C@@]1(O)C(C)(C)CC[C@@H](O)[C@@]1(C)O)=C\\C(=O)O[C@@H]1C[C@](C)(O)[C@H]2[C@H](O[C@@H]3O[C@H](CO)[C@@H](O)[C@H](O)[C@H]3O)OC=C[C@H]21 [REHMAGLUTOSIDE H]"
  IC50: "> 10 µM"
- Compound: "C[C@]1(O)C[C@@H](O)[C@@H]2C=CO[C@@H](O[C@@H]3O[C@H](CO[C@H]4C[C@H]5[C@@H]([C@@H](O[C@@H]6O[C@H](CO)[C@@H](O)[C@H](O)[C@H]6O)O4)[C@](C)(O)C[C@@H]5O)[C@@H](O)[C@H](O)[C@H]3O)[C@@H]21 [REHMAGLUTOSIDE J]"
  IC50: "> 10 µM"
- Compound: "CC(/C=C/[C@@]1(O)C(C)(C)CCC[C@@]1(C)O[C@@H]1O[C@H](CO)[C@@H](O)[C@H](O)[C@H]1O)=C\\C(=O)O[C@@H]1C[C@](C)(O)[C@H]2[C@H](O[C@@H]3O[C@H](CO)[C@@H](O)[C@H](O)[C@H]3O)OC=C[C@H]21 [REHMAGLUTOSIDE I]"
  IC50: "> 10 µM"
- Compound: "C[C@]1(O)C[C@@H](OC(=O)CCc2cc(O)ccn2)[C@@H]2C=CO[C@@H](O[C@@H]3O[C@H](CO)[C@@H](O)[C@H](O)[C@H]3O)[C@@H]21 [REHMAGLUTOSIDE D]"
  IC50: "> 10 µM"

----------
- Test system: A549
- Procedure summary: Cytotoxicity against human A549 cells after 4 days by MTT assay
- Format: functional, cell-based
- Condition summary: A549, 96 h
Catalogue of molecules with associated IC50
Experimental endpoint: IC50

- Molecule: "COc1cc(C(=O)O[C@@H]2C[C@](C)(O)[C@H]3[C@H](O[C@@H]4O[C@H](CO)[C@@H](O)[C@H](O)[C@H]4O)OC=C[C@H]32)ccc1O[C@@H]1O[C@H](CO)[C@@H](O)[C@H](O)[C@H]1O [REHMAGLUTOSIDE B]"
  Result: "> 10 µM"
- Molecule: "COc1cc([C@@H]2Oc3c(O)cc(/C=C/C(=O)O[C@@H]4C[C@](C)(O)[C@H]5[C@H](O[C@@H]6O[C@H](CO)[C@@H](O)[C@H](O)[C@H]6O)OC=C[C@H]54)cc3[C@H]2CO)ccc1O [REHMAGLUTOSIDE E]"
  Result: "> 10 µM"
